The values you see were collected from the supplement of paper PMC3545927.

Below, each entry is listed with its recorded furin cleavage Z-score.
- TARGET UNDER TEST: furin, P09958;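 also: purified furin at 1:10 enzyme:substrate in 50 mM HEPES pH 7.5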
- Sequence (P09958 whole entry): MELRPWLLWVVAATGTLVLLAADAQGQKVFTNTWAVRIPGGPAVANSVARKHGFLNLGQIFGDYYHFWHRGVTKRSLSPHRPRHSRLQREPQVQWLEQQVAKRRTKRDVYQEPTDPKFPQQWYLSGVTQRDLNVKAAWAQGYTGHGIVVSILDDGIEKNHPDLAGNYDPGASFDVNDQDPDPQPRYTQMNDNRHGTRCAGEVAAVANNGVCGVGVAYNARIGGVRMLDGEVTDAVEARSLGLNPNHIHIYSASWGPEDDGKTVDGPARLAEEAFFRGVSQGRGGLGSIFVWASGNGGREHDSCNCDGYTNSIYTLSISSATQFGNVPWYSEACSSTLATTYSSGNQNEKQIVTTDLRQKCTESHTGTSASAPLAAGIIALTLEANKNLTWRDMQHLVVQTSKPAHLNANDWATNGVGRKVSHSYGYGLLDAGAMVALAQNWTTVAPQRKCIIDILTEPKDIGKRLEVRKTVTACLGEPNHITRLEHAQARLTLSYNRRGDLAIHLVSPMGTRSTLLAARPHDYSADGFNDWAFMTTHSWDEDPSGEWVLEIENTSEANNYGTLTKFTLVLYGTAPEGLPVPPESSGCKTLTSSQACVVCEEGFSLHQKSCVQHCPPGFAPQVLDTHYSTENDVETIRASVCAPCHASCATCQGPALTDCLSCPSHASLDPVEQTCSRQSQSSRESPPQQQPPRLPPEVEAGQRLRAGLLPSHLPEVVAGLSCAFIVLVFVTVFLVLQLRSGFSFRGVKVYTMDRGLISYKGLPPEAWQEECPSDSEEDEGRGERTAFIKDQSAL
- TEST DETAILS: furin cleavage Z-score vs untreated control; higher = more cleavage, active = 3.5 or more, inactive = 1 or less, 8 variable residues between constant flanks
- EXPERIMENTAL CONDITIONS: 7.5 min
This is one part of the list. No count for the full screen is at hand.

SEQUENCE ENTRY | furin cleavage Z-score
CAACNWTRGEAGNASASA [HC482] | 0.0668 (inactive)
CARKRKKKEEAGNASASA [FS-2697] | 0.247 (inactive)
CARALAHGVRAGNASASA [HC235] | -1.61 (inactive)
CAALSNSLLRAGNASASA [HC1383] | -1.04 (inactive)
CAPLAVMGSSAGNASASA [HC1462] | 0.481 (inactive)
CAKKIRGKRFAGNASASA [FS-672] | 6.75 (active)
CARHKRETLKAGNASASA [FS-2678] | 8.31 (active)
CATNLRIKRDAGNASASA [FS-568] | 14.5 (active)
CARKRRHHKEAGNASASA [FS-2699] | 2.57
CARRRRYALSAGNASASA [FS-2801] | 5.16 (active)
CARHKRSLLRAGNASASA [FS-2336] | 3.75 (active)
CARHKRRSKFAGNASASA [FS-2938] | 1.38
CARKNRSRIPAGNASASA [FS-1732] | 0.169 (inactive)
CASTMCSAHLAGNASASA [HC2506] | -0.111 (inactive)
CALEFWEGVFAGNASASA [HC938] | 0.499 (inactive)
CARHRARSVRAGNASASA [HC1621] | 5.03 (active)
CARNKRKVFSAGNASASA [FS-2159] | 0.528 (inactive)
CARRRRYAVAAGNASASA [FS-3232] | 4.58 (active)
CARHRRQIDRAGNASASA [FU5] | 8.52 (active)
CARHKRMCQGAGNASASA [FS-2335] | 1.23
CARRRRYEGHAGNASASA [FS-2235] | 0.411 (inactive)
CAPKARRKRYAGNASASA [FS-619] | 11.3 (active)
CARHRRTPDRAGNASASA [FS-2555] | 3.94 (active)
CARRRRLRTAAGNASASA [FS-1786] | 2.03
CAEEQKLPINAGNASASA [HC1379] | 0.861 (inactive)
CARHKRKVFEAGNASASA [FS-1954] | 0.591 (inactive)
CAAASCGGVVAGNASASA [HC568] | -0.496 (inactive)
CAGPLLCPAGAGNASASA [HC744] | -0.656 (inactive)
CARKRRAAIPAGNASASA [FS-2970] | 8.75 (active)
CAFTEAMTRYAGNASASA [HC1540] | 1.26
